test: total protein half-life in vivo (active degradation + dilution); higher = more stable protein; details: wild type E. coli NCM3722; growth: N-lim chemostat; doubling time 6 h
Overview of reported total protein half-life in vivo across a group of sequences:

| sequence.chain | total protein half-life in vivo (h) |
| --- | --- |
| MNNMNVIIADDHPIVLFGIRKSLEQIEWVNVVGEFEDSTALINNLPKLDAHVLITDLSMPGDKYGDGITLIKYIKRHFPSLSIIVLTMNNNPAILSAVLDLDIEGIVLKQGAPTDLPKALAALQKGKKFTPESVSRLLEKISAGGYGDKRLSPKESEVLRLFAEGFLVTEIAKKLNRSIKTISSQKKSAMMKLGVENDIALLNYLSSVTLSPADKD [P0DMC7] | 3.01 |
| MAGNTIGQLFRVTTFGESHGLALGCIVDGVPPGIPLTEADLQHDLDRRRPGTSRYTTQRREPDQVKILSGVFEGVTTGTSIGLLIENTDQRSQDYSAIKDVFRPGHADYTYEQKYGLRDYRGGGRSSARETAMRVAAGAIAKKYLAEKFGIEIRGCLTQMGDIPLDIKDWSQVEQNPFFCPDPDKIDALDELMRALKKEGDSIGAKVTVVASGVPAGLGEPVFDRLDADIAHALMSINAVKGVEIGDGFDVVALRGSQNRDEITKDGFQSNHAGGILGGISSGQQIIAHMALKPTSSITVPGRTINRFGEEVEMITKGRHDPCVGIRAVPIAEAMLAIVLMDHLLRQRAQNADVKTDIPRW | 5.09 |
| MILTDPEWQAVLLSLKVSSLAVLFSLPFGIFFAWLLVRCTFPGKALLDSVLHLPLVLPPVVVGYLLLVSMGRRGFIGERLYDWFGITFAFSWRGAVLAAAVMSFPLMVRAIRLALEGVDVKLEQAARTLGAGRWRVFFTITLPLTLPGIIVGTVLAFARSLGEFGATITFVSNIPGETRTIPSAMYTLIQTPGGESGAARLCIISIALAMISLLISEWLARISRERAGR [P0AF01] | 5.21 |
| MRTVLNILNFVLGGFATTLGWLLATLVSIVLIFTLPLTRSCWEITKLSLVPYGNEAIHVDELNPAGKNVLLNTGGTVLNIFWLIFFGWWLCLMHIATGIAQCISIIGIPVGIANFKIAAIALWPVGRRVVSVETAQAAREANARRRFE [P0AB12] | 6.72 |

* * *

experiment: total protein half-life in vivo (active degradation + dilution); higher = more stable protein; conditions: wild type E. coli NCM3722; growth: P-lim chemostat; doubling time 6 h

| sequence.chain | total protein half-life in vivo (h) |
| --- | --- |
| MSHLDNGFRSLTLQRFPATDDVNPLQAWEAADEYLLQQLDDTEIRGPVLILNDAFGALSCALAEHKPYSIGDSYISELATRENLRLNGIDESSVKFLDSTADYPQQPGVVLIKVPKTLALLEQQLRALRKVVTSDTRIIAGAKARDIHTSTLELFEKVLGPTTTTLAWKKARLINCTFNEPQLADAPQTVSWKLEGTDWTIHNHANVFSRTGLDIGARFFMQHLPENLEGEIVDLGCGNGVIGLTLLDKNPQAKVVFVDESPMAVASSRLNVETNMPEALDRCEFMINNALSGVEPFRFNAVLCNPPFHQQHALTDNVAWEMFHHARRCLKINGELYIVANRHLDYFHKLKKIFGNCTTIATNNKFVVLKAVKLGRRR | 5.7 |
| MKMNKSLIVLCLSAGLLASAPGISLADVNYVPQNTSDAPAIPSAALQQLTWTPVDQSKTQTTQLATGGQQLNVPGISGPVAAYSVPANIGELTLTLTSEVNKQTSVFAPNVLILDQNMTPSAFFPSSYFTYQEPGVMSADRLEGVMRLTPALGQQKLYVLVFTTEKDLQQTTQLLDPAKAYAKGVGNSIPDIPDPVARHTTDGLLKLKVKTNSSSSVLVGPLFGSSAPAPVTVGNTAAPAVAAPAPAPVKKSEPMLNDTESYFNTAIKNAVAKGDVDKALKLLDEAERLGSTSARSTFISSVKGKG | 4.18 |
